# experiment: Toxicity in HEK 293 cells by trypan blue exclusion (HPV-11 example)
# Format: cell-based
# conditionsUsed: human
Catalogue of compounds with associated CC50 at 48 h
propertyLabel: CC50 at 48 h

- compound: "CCCCCCCCCCCCCCCCCCOCCOP(=O)(COCCn1cnc2c(=O)[nH]c(N)nc21)OCc1ccccc1 (racemic) [Compound 1]"
  obsValue: "> 100 µM"
- compound: "CCCCCCCCCCCCCCCCCCOCCOP(=O)(COCCn1cnc2c(N)ncnc21)OCc1ccccc1 (stereo not shown) [Compound 2]"
  obsValue: "> 100 µM"
- compound: "CCCCCCCCCCCCCCCCCCOCCOP(=O)(CO[C@H](CO)Cn1ccc(N)nc1=O)OCc1ccccc1 (stereo partly shown) [Compound 219]"
  obsValue: "> 10 µM"
- compound: "CCCCCCCCCCCCCCCCCCOCCOP(=O)(CO[C@H](CO)Cn1cnc2c(N)ncnc21)OCc1ccccc1 (stereo partly shown) [Compound 218]"
  obsValue: "> 100 µM"

====

# Tested on: HIV-192US727
# experiment: Anti-HIV assay in human PBMC, supernatant reverse transcriptase activity
# conditionsUsed: HIV-192US727, human PBMC
propertyLabel: Selectivity Index

- compound: "CCCCCCCCCCCCCCCCCCOCCOP(=O)(CO[C@H](COC)Cn1cnc2c(N)ncnc21)Oc1ccccc1 (stereo partly drawn)"
  obsValue: ">37.5"
- compound: "CCCCCCCCCCCCCCCCCCOCCOP(=O)(CO[C@H](COC)Cn1cnc2c(N)ncnc21)OCc1ccccc1 (stereo partly drawn)"
  obsValue: ">312"
- compound: "CCCCCCCCCCCCCCCCCCOCCOP(=O)(COCCn1cnc2c(=O)[nH]c(N)nc21)OCc1ccccc1 (racemic)"
  obsValue: ">4.0"
- compound: "CCCCCCCCCCCCCCCCCCOCCOP(=O)(CO[C@H](CO)Cn1cnc2c(N)ncnc21)OCc1ccccc1 (stereo partly drawn)"
  obsValue: ">23.0"
- compound: "CCCCCCCCCCCCCCCCCCOCCOP(=O)(COCCn1cnc2c(N)ncnc21)OCc1ccccc1 (stereo not drawn)"
  obsValue: ">1100"
- compound: "CCCCCCCCCCCCCCCCCCOCCOP(=O)(COCCn1cnc2c(=O)[nH]c(N)nc21)Oc1ccccc1 (stereo not drawn)"
  obsValue: ">9.0"
- compound: "CCCCCCCCCCCCCCCCCCOCCOP(=O)(CO[C@H](C)Cn1cnc2c(=O)[nH]c(N)nc21)OCc1ccccc1 (stereo partly drawn)"
  obsValue: ">2260"
- compound: "CCCCCCCCCCCCCCCCCCOCCOP(=O)(CO[C@H](CO)Cn1ccc(N)nc1=O)OCc1ccccc1 (stereo partly drawn)"
  obsValue: ">28.7"
- compound: "CCCCCCCCCCCCCCCCCCOCCOP(=O)(CO[C@H](C)Cn1cnc2c(N)ncnc21)OCc1ccccc1 (stereo partly drawn)"
  obsValue: ">4920"

====

Catalogue of compounds with associated pEC50
# System: Hepatitis B virus
# experiment: HBV replication in 2.2.15 cells, HBV DNA blot hybridization
# conditionsUsed: Hepatitis B virus, 168 h
pEC50: −log10 of the molar value.

- compound: "CCCCCCCCCCCCCCCCCCOCCOP(=O)(CO[C@H](COC)Cn1cnc2c(N)ncnc21)Oc1ccccc1 (stereo partly drawn) [Compound 164]"
  pEC50: 6.34
- compound: "CCCCCCCCCCCCCCCCCCOCCOP(=O)(CO[C@H](C)Cn1cnc2c(=O)[nH]c(N)nc21)OCc1ccccc1 (stereo partly drawn) [Compound 73]"
  pEC50: 4.47
- compound: "CCCCCCCCCCCCCCCCCCOCCOP(=O)(CO[C@H](COC)Cn1cnc2c(N)ncnc21)OCc1ccccc1 (stereo partly drawn) [Compound 146]"
  pEC50: 4.48
- compound: "CCCCCCCCCCCCCCCCCCOCCOP(=O)(CO[C@H](CO)Cn1ccc(N)nc1=O)OCc1ccccc1 (stereo partly drawn) [Compound 219]"
  pEC50: 6.35
- compound: "CCCCCCCCCCCCCCCCCCOCCOP(=O)(CO[C@H](CO)Cn1cnc2c(N)ncnc21)OCc1ccccc1 (stereo partly drawn) [Compound 218]"
  pEC50: 6.12
- compound: "CCCCCCCCCCCCCCCCCCOCCOP(=O)(COCCn1cnc2c(=O)[nH]c(N)nc21)OCc1ccccc1 (racemic) [Compound 1]"
  pEC50: 6.36
- compound: "CCCCCCCCCCCCCCCCCCOCCOP(=O)(COCCn1cnc2c(=O)[nH]c(N)nc21)Oc1ccccc1 (stereo not drawn) [Compound 19]"
  pEC50: 4.37
- compound: "CCCCCCCCCCCCCCCCCCOCCOP(=O)(CO[C@H](C)Cn1cnc2c(N)ncnc21)OCc1ccccc1 (stereo partly drawn) [Compound 74]"
  pEC50: 5.19
- compound: "CCCCCCCCCCCCCCCCCCOCCOP(=O)(COCCn1cnc2c(N)ncnc21)OCc1ccccc1 (stereo not drawn) [Compound 2]"
  pEC50: 6.06
